Test system: HCT116 colorectal cancer cells
assay-notes: MTT assay, HCT116
conditions: Homo sapiens, HCT-116, 72 h, read-out: MTT cell proliferation mortality assay (%) HCT116, at 100 μg/ml, 72 h
experimental-endpoint: cytotoxicity at 100 µg/mL

Record excerpt, results attached:
> print(dat)
                         structure.notation  reported.measurement
1  COc1ccc(-c2c(Cl)n(-c3ccc(Cl)cc3Cl)c3ncnc(Cl)c23)cc1OC             80 to 90%
2  O=c1[nH]cnc2c1c(-c1ccc(Br)cc1)cn2-c1ccc(Cl)cc1Cl             80 to 90%

Now look at this entry.
Query: I am curious: what cytotoxicity at 100 µg/mL value has been reported for COc1nc(C(Cl)(Cl)Cl)nc2c1c(-c1ccc(Br)cc1)c(Cl)n2-c1ccc(Cl)cc1Cl ?
Response: 80 to 90%
